Examples of compounds with documented IC50 follow.
- SYSTEM: Angiotensin Converting Enzyme (ACE) (Oryctolagus cuniculus, UniProt P12822)
- Sequence (P12822 34-1310): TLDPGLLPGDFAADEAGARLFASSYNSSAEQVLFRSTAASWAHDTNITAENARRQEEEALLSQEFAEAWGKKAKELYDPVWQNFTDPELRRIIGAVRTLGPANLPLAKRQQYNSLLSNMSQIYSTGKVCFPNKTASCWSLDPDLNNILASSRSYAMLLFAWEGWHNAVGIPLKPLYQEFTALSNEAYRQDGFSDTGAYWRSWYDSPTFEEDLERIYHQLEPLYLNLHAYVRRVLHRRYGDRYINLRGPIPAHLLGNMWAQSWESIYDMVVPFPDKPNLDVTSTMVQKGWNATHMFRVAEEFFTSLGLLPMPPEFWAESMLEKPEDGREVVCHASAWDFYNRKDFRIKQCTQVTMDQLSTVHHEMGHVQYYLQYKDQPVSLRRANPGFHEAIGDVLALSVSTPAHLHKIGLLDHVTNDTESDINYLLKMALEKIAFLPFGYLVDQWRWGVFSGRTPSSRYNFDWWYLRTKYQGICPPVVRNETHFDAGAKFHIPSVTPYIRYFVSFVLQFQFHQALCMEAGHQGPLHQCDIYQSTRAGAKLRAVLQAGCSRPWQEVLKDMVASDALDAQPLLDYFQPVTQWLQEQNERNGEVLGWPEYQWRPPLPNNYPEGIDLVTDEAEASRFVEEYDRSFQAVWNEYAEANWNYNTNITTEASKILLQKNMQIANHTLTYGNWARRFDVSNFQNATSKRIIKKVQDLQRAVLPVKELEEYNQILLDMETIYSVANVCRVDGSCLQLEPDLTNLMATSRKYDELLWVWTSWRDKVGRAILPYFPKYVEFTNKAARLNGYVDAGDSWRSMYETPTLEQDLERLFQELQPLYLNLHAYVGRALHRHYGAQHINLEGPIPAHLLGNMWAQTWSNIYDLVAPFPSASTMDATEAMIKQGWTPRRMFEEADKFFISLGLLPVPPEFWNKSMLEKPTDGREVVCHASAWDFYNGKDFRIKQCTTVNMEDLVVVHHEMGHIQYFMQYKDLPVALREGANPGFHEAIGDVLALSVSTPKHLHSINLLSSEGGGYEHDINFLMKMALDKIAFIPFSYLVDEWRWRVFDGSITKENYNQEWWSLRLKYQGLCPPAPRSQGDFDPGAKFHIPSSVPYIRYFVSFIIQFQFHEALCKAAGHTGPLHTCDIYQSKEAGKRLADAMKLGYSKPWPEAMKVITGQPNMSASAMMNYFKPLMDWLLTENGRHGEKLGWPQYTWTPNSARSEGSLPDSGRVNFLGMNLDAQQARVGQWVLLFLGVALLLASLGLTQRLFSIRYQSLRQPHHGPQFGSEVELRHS
Peptide text beside a SMILES is read from it.

COMPOUND	SYSTEM	IC50
CC(C)C[C@H](NC(=O)[C@@H](N)C(C)C)C(=O)NCC(=O)N1CCC[C@H]1C(=O)N[C@H](C(=O)N[C@@H](CCCNC(=N)N)C(=O)NCC(=O)N1CCC[C@H]1C(=O)N[C@@H](Cc1ccccc1)C(=O)N1CCC[C@H]1C(=O)O)C(C)C [SEQ. ID. NO: 2, VLGPVRGPFP] (H-VLGPVRGPFP-OH)	Angiotensin Converting Enzyme (ACE) (Oryctolagus cuniculus, UniProt P12822)	137 µM
CC(C)[C@H](N)C(=O)N[C@H](C(=O)N[C@H](C(=O)N1CCC[C@H]1C(=O)N1CCC[C@H]1C(=O)N[C@@H](Cc1ccccc1)C(=O)O)C(C)C)C(C)C [SEQ. ID. NO: 5, VVVPPF] (H-VVVPPF-OH)	Angiotensin Converting Enzyme (ACE) (Oryctolagus cuniculus, UniProt P12822)	> 700 µM

The record that follows has no IC50 shown yet.
Data request: Consider the compound shown here: CC[C@H](C)[C@H](NC(=O)[C@@H](NC(=O)[C@@H]1CCCN1C(=O)[C@H](Cc1ccccc1)NC(=O)[C@@H]1CCCN1C(=O)CNC(=O)[C@H](CCCNC(=N)N)NC(=O)[C@@H](NC(=O)[C@@H]1CCCN1C(=O)CNC(=O)[C@H](CC(C)C)NC(=O)[C@@H](N)C(C)C)C(C)C)[C@@H](C)CC)C(=O)N[C@H](C(=O)O)C(C)C [SEQ. ID. NO: 7, VLGPVRGPFPIIV] (H-VLGPVRGPFPIIV-OH) What is its recorded IC50?
Data returned: > 700 µM

###

- SYSTEM: Angiotensin Converting Enzyme (ACE) (Oryctolagus cuniculus)
- Sequence (P12822 34-1310): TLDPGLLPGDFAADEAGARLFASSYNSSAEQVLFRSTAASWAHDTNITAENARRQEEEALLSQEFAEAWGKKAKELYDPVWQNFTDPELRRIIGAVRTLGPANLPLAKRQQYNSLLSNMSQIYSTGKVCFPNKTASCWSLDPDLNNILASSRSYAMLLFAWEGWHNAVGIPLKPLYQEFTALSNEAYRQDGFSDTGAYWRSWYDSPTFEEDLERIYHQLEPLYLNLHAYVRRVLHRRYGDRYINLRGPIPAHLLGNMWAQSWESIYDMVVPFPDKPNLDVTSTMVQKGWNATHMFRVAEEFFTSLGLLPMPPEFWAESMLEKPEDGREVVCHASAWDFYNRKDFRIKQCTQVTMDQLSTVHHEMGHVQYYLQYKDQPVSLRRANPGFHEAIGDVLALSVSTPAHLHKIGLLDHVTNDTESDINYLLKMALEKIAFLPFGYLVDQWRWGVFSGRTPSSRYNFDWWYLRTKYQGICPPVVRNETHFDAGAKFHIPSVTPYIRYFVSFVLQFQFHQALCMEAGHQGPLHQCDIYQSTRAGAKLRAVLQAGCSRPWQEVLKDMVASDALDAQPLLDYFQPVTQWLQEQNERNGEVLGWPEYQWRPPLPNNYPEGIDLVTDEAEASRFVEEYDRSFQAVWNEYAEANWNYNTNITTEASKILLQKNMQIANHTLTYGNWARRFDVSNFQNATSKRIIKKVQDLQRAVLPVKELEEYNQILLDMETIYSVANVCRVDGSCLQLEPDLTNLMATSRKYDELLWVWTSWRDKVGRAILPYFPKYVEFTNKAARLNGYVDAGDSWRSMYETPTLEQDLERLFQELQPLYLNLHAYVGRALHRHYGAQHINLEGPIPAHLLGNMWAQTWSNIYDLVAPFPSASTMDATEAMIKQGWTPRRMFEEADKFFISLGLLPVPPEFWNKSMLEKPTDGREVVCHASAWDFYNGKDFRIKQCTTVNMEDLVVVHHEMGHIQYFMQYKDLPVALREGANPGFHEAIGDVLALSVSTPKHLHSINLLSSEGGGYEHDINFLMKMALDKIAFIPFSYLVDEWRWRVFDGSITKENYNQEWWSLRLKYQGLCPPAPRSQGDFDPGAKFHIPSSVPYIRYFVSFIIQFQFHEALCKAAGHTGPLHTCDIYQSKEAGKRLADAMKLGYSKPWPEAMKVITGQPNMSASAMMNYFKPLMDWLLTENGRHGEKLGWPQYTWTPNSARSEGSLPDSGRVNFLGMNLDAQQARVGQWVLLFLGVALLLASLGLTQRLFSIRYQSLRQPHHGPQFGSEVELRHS
- ASSAY DETAILS: Measurement of ACE inhibitor activity (ACEI activity), Hip-His-Leu substrate, hippuric acid read at 228 nm
- Format: biochemical
- MEASUREMENT CONTEXT: chemically synthesized peptides, Table 4
Peptide text beside a SMILES is read from it.
PROPERTY LABEL: IC50 (µM)

MOLECULE	SYSTEM	IC50 (µM)
CC[C@H](C)[C@H](NC(=O)[C@@H](NC(=O)[C@@H]1CCCN1C(=O)[C@H](Cc1ccccc1)NC(=O)[C@@H]1CCCN1C(=O)CNC(=O)[C@H](CCCNC(=N)N)NC(=O)[C@@H](N)C(C)C)[C@@H](C)CC)C(=O)N[C@H](C(=O)O)C(C)C [SEQ. ID. NO: 4, VRGPFPIIV] (H-VRGPFPIIV-OH)	Angiotensin Converting Enzyme (ACE) (Oryctolagus cuniculus)	630

(a) CC(C)C[C@H](NC(=O)[C@@H]1CCCN1C(=O)[C@H](CC(C)C)NC(=O)[C@H](Cc1cnc[nH]1)NC(=O)[C@@H](N)CC(C)C)C(=O)N1CCC[C@H]1C(=O)O [SEQ. ID. NO: 1, LHLPLP] (H-LHLPLP-OH)
(b) CC(C)C[C@H](NC(=O)[C@@H]1CCCN1C(=O)[C@H](CC(C)C)NC(=O)[C@@H]1CCCN1C(=O)[C@H](CC(C)C)NC(=O)[C@H](Cc1c[nH]cn1)NC(=O)[C@@H](N)CC(C)C)C(=O)O [SEQ. ID. NO: 3, LHLPLPL] (H-LHLPLPL-OH)
Data request: Please compare: a and b . Report which one has the smaller IC50 value. Please respond with the label that marks your chosen entry.
Data returned: a

Origin of the recorded values: patent EP1640447A1
